target desc: Anti-CD28 Fab (SEQ ID NOs: 696, 697)
Sequence (VH, as listed by the source, chain 1 of 2): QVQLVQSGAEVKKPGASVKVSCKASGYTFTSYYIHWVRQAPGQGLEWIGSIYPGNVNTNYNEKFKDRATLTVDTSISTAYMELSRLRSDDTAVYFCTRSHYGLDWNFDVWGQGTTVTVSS
Sequence (VL, as listed by the source, chain 2 of 2): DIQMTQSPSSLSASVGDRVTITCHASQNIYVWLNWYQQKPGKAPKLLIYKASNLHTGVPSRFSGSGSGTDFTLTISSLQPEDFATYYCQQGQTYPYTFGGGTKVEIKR
method notes: phage binding ELISA on captured anti-CD28 Fab; competitor: CD28 antigen preincubated in the wells
test readout: Anti-CD28 Fab signal in the presence of CD28 (phage binding ELISA)
// keep it numeric: no unit symbol after the value

Past entries and their recorded results:
>  <binder>
YCDGHSWQYISKCL (Peptide-87 library clone, tested as clonal phage supernatant with the peptide fused to the pIII filament of the bacteriophage) [Phage-905]

>  <observed result>
0.05

$$$$
>  <binder>
YCEGHLPMYMIKCL (Peptide-87 library clone, tested as clonal phage supernatant with the peptide fused to the pIII filament of the bacteriophage) [Phage-914]

>  <observed result>
0.09

$$$$

(Q) Quick check: Anti-CD28 Fab signal in the presence of CD28 (phage binding ELISA) of YCDGHAPQWMAKCL (Peptide-87 library clone, tested as clonal phage supernatant with the peptide fused to the pIII filament of the bacteriophage) [Phage-907] ?
(A) 0.1

(Q) Item: YCEGHLPQYMRPCL (Peptide-87 library clone, tested as clonal phage supernatant with the peptide fused to the pIII filament of the bacteriophage) [Phage-915]
(A) 0.08

(Q) Repeat with YCEGHAPQYMTKCL (Peptide-87 library clone, tested as clonal phage supernatant with the peptide fused to the pIII filament of the bacteriophage) [Phage-911]
(A) 0.08

(Q) Now consider YCEGHLSQYMSKCL (Peptide-87 library clone, tested as clonal phage supernatant with the peptide fused to the pIII filament of the bacteriophage) [Phage-916] .
(A) 0.07

(Q) Now consider YCEGHAQEYMNKCL (Peptide-87 library clone, tested as clonal phage supernatant with the peptide fused to the pIII filament of the bacteriophage) [Phage-910] .
(A) 0.06

(Q) What do you have for YCDGHIGLYLNKCL (Peptide-87 library clone, tested as clonal phage supernatant with the peptide fused to the pIII filament of the bacteriophage) [Phage-913] ?
(A) 0.06
